Biological target: UniProt:P56192
Sequence (P56192 whole entry): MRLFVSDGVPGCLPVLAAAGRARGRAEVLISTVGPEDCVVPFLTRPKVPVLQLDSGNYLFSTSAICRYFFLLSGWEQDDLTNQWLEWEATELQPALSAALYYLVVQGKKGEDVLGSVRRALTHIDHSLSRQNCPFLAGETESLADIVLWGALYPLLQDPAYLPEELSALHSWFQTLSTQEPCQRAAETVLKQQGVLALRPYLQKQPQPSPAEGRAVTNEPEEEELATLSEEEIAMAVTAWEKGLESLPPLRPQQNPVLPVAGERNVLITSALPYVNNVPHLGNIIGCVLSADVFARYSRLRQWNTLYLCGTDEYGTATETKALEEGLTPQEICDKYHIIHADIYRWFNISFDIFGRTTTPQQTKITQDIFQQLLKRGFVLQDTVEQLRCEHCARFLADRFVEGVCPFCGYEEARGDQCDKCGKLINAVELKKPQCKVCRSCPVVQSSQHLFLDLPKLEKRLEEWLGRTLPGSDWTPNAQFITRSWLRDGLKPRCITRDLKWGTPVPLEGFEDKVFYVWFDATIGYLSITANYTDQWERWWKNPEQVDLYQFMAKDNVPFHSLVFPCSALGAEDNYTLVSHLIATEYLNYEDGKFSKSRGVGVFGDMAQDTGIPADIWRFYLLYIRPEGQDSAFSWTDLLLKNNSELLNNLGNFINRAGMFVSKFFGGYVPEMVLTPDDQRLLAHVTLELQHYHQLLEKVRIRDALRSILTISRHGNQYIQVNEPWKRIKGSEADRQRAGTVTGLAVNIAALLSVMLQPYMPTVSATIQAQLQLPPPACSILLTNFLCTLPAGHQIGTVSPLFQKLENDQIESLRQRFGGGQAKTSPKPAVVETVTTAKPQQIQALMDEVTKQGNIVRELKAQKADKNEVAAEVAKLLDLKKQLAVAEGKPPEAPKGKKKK
Catalogue of pIC50 values
Hey, just a heads up that pIC50 is the negative log base 10 of the concentration in molar.

The following compounds have reported results that may help.
Lookup: What does the data say about its pIC50? Entry: `O=C(O)c1cc(-c2ccc(-c3ccc(F)c(Cl)c3)cc2)n(-c2ccc(Cl)cc2Cl)n1`
Found: 4.68

Lookup: What does the data say about its pIC50? Entry: `O=C(O)c1cc(-c2ccc(-c3ccc(F)cc3)cc2)n(-c2ccc(Cl)cc2Cl)n1`
Found: 4.38

Lookup: What does the data say about its pIC50? Entry: `O=C(O)c1cc(-c2ccc(-c3ccc(C(F)(F)F)cc3)cc2)n(-c2ccc(Cl)cc2Cl)n1`
Found: 4.47

Next:
Lookup: What does the data say about its pIC50? Entry: `CCn1nc(C(=O)O)cc1-c1ccc(-c2ccc(Cl)cc2Cl)cc1`
Found: 4.33
